# assay.system: human orexin-2 receptor (Homo sapiens (Human), UniProt O43614)
# Sequence (O43614 whole entry): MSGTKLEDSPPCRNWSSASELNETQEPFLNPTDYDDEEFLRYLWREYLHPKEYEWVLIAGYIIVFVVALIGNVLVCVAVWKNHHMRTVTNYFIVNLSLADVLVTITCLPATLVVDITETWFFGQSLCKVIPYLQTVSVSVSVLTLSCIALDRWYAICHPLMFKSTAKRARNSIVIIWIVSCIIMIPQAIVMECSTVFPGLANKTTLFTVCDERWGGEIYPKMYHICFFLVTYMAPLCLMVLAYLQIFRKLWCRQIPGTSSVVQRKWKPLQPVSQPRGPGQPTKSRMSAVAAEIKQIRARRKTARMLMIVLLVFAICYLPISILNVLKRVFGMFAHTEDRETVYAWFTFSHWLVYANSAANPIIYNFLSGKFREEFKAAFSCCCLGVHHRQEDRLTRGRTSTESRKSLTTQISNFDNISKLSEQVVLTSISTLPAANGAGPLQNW
# method: Intracellular calcium measurement (FLIPR), CHO cells expressing human orexin-2 receptor, 3 nM orexin-A
# Type: cell-based
# recorded.conditions: CHO cells expressing human orexin-2 receptor, FLIPR, 3 nM orexin-A; geometric mean if determined several times; read-out: IC50 OX2
measurement.name: log10 IC50 (log10 of the value in µM)
Reminder: these figures are log10 of reported IC50, in µM before transformation.

Task item: Identify the reported log10 IC50 for the following entry. Cc1ccc(-n2nccn2)c(C(=O)N2CCC[C@H]2c2cnc(-c3ccccc3)[nH]2)c1 [compound 519]
Reply: -0.14

Task item: Return reported log10 IC50. Input compound: Cc1cc(C(=O)N2CCC[C@H]2c2noc(-c3cccc(F)c3C)n2)c(-n2nccn2)cc1C [compound 339]
Reply: -2.70

Task item: Input COc1ccc(C)c(-c2nc([C@@H]3CCCN3C(=O)c3cc(OC)c(Cl)cc3-n3nccn3)no2)c1 [compound 353] , output reported log10 IC50.
Reply: -2.30

Task item: Recall and state the measured log10 IC50 for Cc1ccc(C(=O)N2CCC[C@H]2c2nc(-c3cccc(Cl)c3C)no2)c(-n2nccn2)c1 [compound 96] .
Reply: -1.92

Task item: Give me measured log10 IC50, please, for this compound: Cc1ccc(-n2nccn2)c(C(=O)N2CCC[C@H]2c2nc(-c3cn(C)c4ncccc34)no2)c1 [compound 51]
Reply: -1.96

Task item: State, in one line, measured log10 IC50 of Cc1cccc(-c2nc([C@@H]3CCCN3C(=O)c3cc(Cl)ccc3-n3nccn3)no2)c1C [compound 394]
Reply: -1.92

Task item: Item Cc1c(F)cccc1-c1nc([C@@H]2CCCN2C(=O)c2ccc(Cl)cc2-n2nccn2)no1 [compound 379] : provide log10 IC50
Reply: -2.30
